Item-by-item account of IC50
System: Miapaca-2 cells
assay method text: MiaPaca-2 Combination Cell proliferation Assay (1) with cobimetinib
Assay type: cell-based
assay conditions: MiaPaca-2 cell proliferation, read-out: MiaPaca-2 Combo (1) IC50

smiles representation | IC50
Cc1ccc(NC(=O)c2ccnc(C(C)(C)C#N)c2)cc1-c1cccc(-c2ccnc3[nH]ncc23)c1 | 100 to 500 nM
CCOc1ncc(-c2cc(NC(=O)c3ccnc(C(F)(F)F)c3)ccc2C)cc1-c1ccnc(NC(C)=O)c1 | ≤ 100 nM
CC(=O)Nc1cc(-c2cc(-c3cc(NC(=O)c4ccnc(C(C)(C)C#N)c4)ccc3C)ccn2)ccn1 | ≤ 100 nM
CC(=O)Nc1cc(-c2cncc(-c3cc(NC(=O)c4cc(C(F)(F)F)ccn4)ccc3C)n2)ccn1 | ≤ 100 nM
Cc1ncc(NC(=O)c2ccnc(C(C)(C)C#N)c2)cc1-c1cccc(-c2cc(NC(=O)C3CC3)ncn2)c1 | ≤ 100 nM
CNC(=O)c1cc(-c2cc(-c3cc(NC(=O)c4ccnc(C5(C#N)CC5)c4)ccc3C)ccn2)ccn1 | 100 to 500 nM
CNC(=O)c1cc(-c2cncc(-c3cc(NC(=O)c4ccnc(C(C)(C)C#N)c4)ccc3C)c2)ncn1 | 100 to 500 nM

* * *

Tested on: H2405 cells
assay method text: H2405 Cell Proliferation Assay (1)
Format: cell-based
assay conditions: Homo sapiens, NCI-H2405
Item-by-item account of IC50

compound | measured on | IC50
COC(=O)Nc1cc(-c2cnnc(-c3cc(NC(=O)CC4CCCC4)cnc3C)c2)ccn1 [Example 368] | H2405 cells | 1000 to 10000 nM
CNC(=O)c1cc(-c2cc(-c3cc(NC(=O)c4ccnc(C(C)(C)F)c4)ccc3C)ccn2)ccn1 [Example 214] | H2405 cells | 100 to 500 nM
Cc1ccc(NC(=O)c2ccnc(C3CC3)c2)cc1-c1ccnc(-c2ccnc(NC(=O)C3CC3)c2)n1 [Example 229] | H2405 cells | ≤ 100 nM
Cc1ccc(NC(=O)c2cnnc(C3CC3)c2)cc1-c1cccc(-c2cc(NC(=O)C3CC3)ncn2)c1 [Example 284] | H2405 cells | 500 to 1000 nM
COC(=O)Nc1cc(-c2cncc(-c3cc(NC(=O)c4ccnc(C(C)(C)F)c4)ccc3C)c2)ncn1 [Example 425] | H2405 cells | ≤ 100 nM
CNC(=O)c1cc(-c2ccnc(-c3cc(NC(=O)c4ccnc(C(C)(C)F)c4)ccc3C)n2)ccn1 [Example 246] | H2405 cells | 100 to 500 nM
COC(=O)Nc1cc(-c2cc(-c3cc(NC(=O)c4ccnc(C(C)(C)C#N)c4)c(F)cc3C)ccn2)ccn1 [Example 308] | H2405 cells | ≤ 100 nM

* * *

Item-by-item account of IC50
measured on: A-Raf kinase (SEQ. ID No: 1) (Homo sapiens (Human), UniProt P10398, Y301D/Y302D)
Sequence (P10398 other isoform, or with tags, fused parts or gaps Y301D (already in the parent)/Y302D (already in the parent)): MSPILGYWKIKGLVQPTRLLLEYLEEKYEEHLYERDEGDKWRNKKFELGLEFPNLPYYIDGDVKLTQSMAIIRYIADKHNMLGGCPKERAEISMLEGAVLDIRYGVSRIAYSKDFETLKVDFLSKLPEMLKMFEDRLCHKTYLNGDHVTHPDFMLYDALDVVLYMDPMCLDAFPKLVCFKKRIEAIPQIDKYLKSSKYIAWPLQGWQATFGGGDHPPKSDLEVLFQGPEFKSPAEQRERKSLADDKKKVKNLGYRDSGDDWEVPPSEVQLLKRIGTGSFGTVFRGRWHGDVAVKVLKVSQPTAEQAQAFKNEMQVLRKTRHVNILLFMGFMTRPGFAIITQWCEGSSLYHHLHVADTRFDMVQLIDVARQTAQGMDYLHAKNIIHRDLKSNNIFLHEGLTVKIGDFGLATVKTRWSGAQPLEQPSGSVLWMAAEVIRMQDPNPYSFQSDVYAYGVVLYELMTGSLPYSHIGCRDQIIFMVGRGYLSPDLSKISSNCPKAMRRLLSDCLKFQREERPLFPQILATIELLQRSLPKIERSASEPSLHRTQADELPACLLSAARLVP
assay method text: Biochemical Assay for A-Raf (1)
assay conditions: Table J, assay version (1); read-out: ARAF (1) IC50
measurement label: IC50

smiles representation | measurement label | result
CNC(=O)c1cc(-c2cc(-c3cc(NC(=O)c4ccnc(C(F)(F)F)c4)ccc3C)cc(C3CC3)n2)ccn1 | IC50 | 1000 to 10000 nM
CC(=O)Nc1cc(-c2cc(-c3cc(NC(=O)c4ccnc(C(C)(C)C#N)c4)ccc3C)cn(C)c2=O)ccn1 | IC50 | 1000 to 10000 nM
Cc1ccc(NC(=O)c2ccnc(C(F)(F)F)c2)cc1-c1ccnc(-c2ccnc(N)c2)n1 | IC50 | 1000 to 10000 nM
Cc1ncc(NC(=O)c2ccnc(C(C)C)c2)cc1-c1cccc(-c2ccnc(NC(=O)C3CC3)c2)n1 | IC50 | 1000 to 10000 nM
CC(=O)Nc1cc(-c2cc(-c3cc(NC(=O)c4ccnc(C(F)(F)F)c4)ccc3C)cc(C(C)(C)O)n2)ccn1 | IC50 | 1000 to 10000 nM
Cc1ccc(NC(=O)c2ccnc(C(C)(C)F)c2)cc1-c1nccc(-c2ccnc(NC(=O)C3CC3)c2)n1 | IC50 | 100 to 500 nM
Cc1ncc(NC(=O)c2cccc(C(F)(F)F)c2)cc1-c1cccc(-c2ccnc(NC(=O)CC#N)c2)c1 | IC50 | 500 to 1000 nM

* * *

Item-by-item account of IC50
Tested on: WM3928 cells
assay method text: WM3928 Cell Proliferation Assay (1)
Format: cell-based
measurement label: IC50

smiles representation | measured on | result
Cc1ccc(NC(=O)c2ccnc(C(C)(C)C#N)c2)cc1-c1cncc(-c2cc(NC(=O)C(C)C)ncn2)c1 | WM3928 cells | ≤ 100 nM
Cc1cc(F)c(NC(=O)c2ccnc(C3CC3)c2)cc1-c1cncc(-c2cc(NC(=O)C3CC3)ncn2)c1 | WM3928 cells | ≤ 100 nM
CC(=O)Nc1cc(-c2cncc(-c3cc(NC(=O)c4ccnc(C(C)(C)C#N)c4)ccc3C)n2)ccn1 | WM3928 cells | ≤ 100 nM
CNC(=O)c1cc(-c2cc(-c3cc(NC(=O)c4ccnc(C(C)(C)C#N)c4)ccc3C)ccn2)ccn1 | WM3928 cells | ≤ 100 nM
COC(=O)Nc1cc(-c2cc(-c3cc(NC(=O)c4ccnc(C(F)F)c4)cnc3C)ccn2)ccn1 | WM3928 cells | 1000 to 10000 nM
COC(=O)Nc1nccc(-c2cccc(-c3cc(NC(=O)c4ccnc(C(C)(C)C#N)c4)cnc3C)c2)n1 | WM3928 cells | 500 to 1000 nM
COC(=O)Nc1cc(-c2cnnc(-c3cc(NC(=O)c4ccnc(C(C)(C)C#N)c4)ccc3C)c2)ccn1 | WM3928 cells | 100 to 500 nM

* * *

Item-by-item account of IC50
measured on: A-Raf kinase (SEQ. ID No: 1) (Homo sapiens (Human), UniProt P10398, Y301D/Y302D)
assay method text: Biochemical Assay for A-Raf (1)
assay conditions: Table J, biochemical assay (1); read-out: ARAF (1)
measurement label: IC50

smiles representation | measured on | result
CNC(=O)c1cc(-c2cncc(-c3cc(NC(=O)c4ccnc(C(C)(C)F)c4)c(F)cc3C)c2)ccn1 | A-Raf kinase (SEQ. ID No: 1) (Homo sapiens (Human), UniProt P10398, Y301D/Y302D) | 1000 to 10000 nM
COC(=O)Nc1cc(-c2cccc(-c3cc(NC(=O)c4ccnc(C(C)(C)F)c4)cnc3C)c2)ncn1 | A-Raf kinase (SEQ. ID No: 1) (Homo sapiens (Human), UniProt P10398, Y301D/Y302D) | 1000 to 10000 nM
Cc1ncc(NC(=O)c2ccnc(C(C)(C)C#N)c2)cc1-c1cccc(-c2cnc3ccccn23)c1 | A-Raf kinase (SEQ. ID No: 1) (Homo sapiens (Human), UniProt P10398, Y301D/Y302D) | 1000 to 10000 nM
Cc1ncc(NC(=O)c2ccnc(C(C)(C)C#N)c2)cc1-c1cccc(-c2ncnn3cccc23)c1 | A-Raf kinase (SEQ. ID No: 1) (Homo sapiens (Human), UniProt P10398, Y301D/Y302D) | 1000 to 10000 nM
CNC(=O)c1cc(-c2cncc(-c3cc(NC(=O)c4ccnc(C5(C#N)CC5)c4)ccc3C)c2)ncn1 | A-Raf kinase (SEQ. ID No: 1) (Homo sapiens (Human), UniProt P10398, Y301D/Y302D) | 1000 to 10000 nM
Cc1cc(F)c(NC(=O)c2ccnc(C(C)(C)C#N)c2)cc1-c1cncc(-c2ccnc(NC(=O)C3CC3)c2)c1 | A-Raf kinase (SEQ. ID No: 1) (Homo sapiens (Human), UniProt P10398, Y301D/Y302D) | 500 to 1000 nM
Cc1ccc(NC(=O)c2cnn(CC(F)(F)F)c2)cc1-c1cncc(-c2ccnc(C(N)=O)c2)c1 | A-Raf kinase (SEQ. ID No: 1) (Homo sapiens (Human), UniProt P10398, Y301D/Y302D) | 1000 to 10000 nM
CNC(=O)c1cc(-c2ccnc(-c3cc(NC(=O)CCC4(F)CC4)ccc3C)c2)ccn1 | A-Raf kinase (SEQ. ID No: 1) (Homo sapiens (Human), UniProt P10398, Y301D/Y302D) | 1000 to 10000 nM
Cc1ccc(NC(=O)[C@H]2CCO[C@@H](C(C)C)C2)cc1-c1cc(-c2ccnc(NC(=O)C3CC3)c2)cnn1 | A-Raf kinase (SEQ. ID No: 1) (Homo sapiens (Human), UniProt P10398, Y301D/Y302D) | 1000 to 10000 nM
Cc1ccc(NC(=O)c2ccnc(C(C)(F)F)c2)cc1-c1cncc(-c2cc(NC(=O)C3CC3)ncn2)c1 | A-Raf kinase (SEQ. ID No: 1) (Homo sapiens (Human), UniProt P10398, Y301D/Y302D) | 500 to 1000 nM
Cc1ccc(NC(=O)c2ccnc(C(C)(C)F)c2)cc1-c1cncc(-c2ccnc(C(N)=O)c2)c1 | A-Raf kinase (SEQ. ID No: 1) (Homo sapiens (Human), UniProt P10398, Y301D/Y302D) | 1000 to 10000 nM
COC(=O)Nc1cc(-c2ccnc(-c3cc(NC(=O)c4ccnc(C(C)(C)F)c4)ccc3C)n2)ccn1 | A-Raf kinase (SEQ. ID No: 1) (Homo sapiens (Human), UniProt P10398, Y301D/Y302D) | 1000 to 10000 nM
CNC(=O)c1cc(-c2nccc(-c3cc(NC(=O)c4ccnc(C(C)(C)F)c4)c(F)cc3C)n2)ccn1 | A-Raf kinase (SEQ. ID No: 1) (Homo sapiens (Human), UniProt P10398, Y301D/Y302D) | 1000 to 10000 nM
CNC(=O)c1cc(-c2ccnc(-c3cc(NC(=O)c4ccnc(C(C)(C)C#N)c4)ccc3C)c2)ccn1 | A-Raf kinase (SEQ. ID No: 1) (Homo sapiens (Human), UniProt P10398, Y301D/Y302D) | 1000 to 10000 nM
COC(=O)Nc1cc(-c2cncc(-c3cc(NC(=O)c4ccnc(C5(C#N)CC5)c4)ccc3C)c2)ncn1 | A-Raf kinase (SEQ. ID No: 1) (Homo sapiens (Human), UniProt P10398, Y301D/Y302D) | 1000 to 10000 nM

Values from patent US12319655B2
